Target chain: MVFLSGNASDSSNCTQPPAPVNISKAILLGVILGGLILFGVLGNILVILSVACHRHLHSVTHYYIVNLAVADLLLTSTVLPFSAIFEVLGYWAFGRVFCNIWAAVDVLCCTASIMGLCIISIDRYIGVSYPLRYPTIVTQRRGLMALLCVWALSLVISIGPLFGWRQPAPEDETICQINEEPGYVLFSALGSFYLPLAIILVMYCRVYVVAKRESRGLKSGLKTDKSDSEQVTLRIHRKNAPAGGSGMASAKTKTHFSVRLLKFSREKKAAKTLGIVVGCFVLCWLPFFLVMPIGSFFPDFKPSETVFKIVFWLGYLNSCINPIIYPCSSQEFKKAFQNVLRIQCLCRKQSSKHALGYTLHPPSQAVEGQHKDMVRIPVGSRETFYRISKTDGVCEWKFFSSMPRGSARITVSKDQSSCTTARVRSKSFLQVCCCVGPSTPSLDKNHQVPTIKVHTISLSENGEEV
Documented log10(Ki) across a set of molecules
Scale type: logarithmic (base 10). Underlying Ki unit: µM.

If you can, please state the reported log10(Ki) value of CC(C)Oc1ccccc1N1CCN(CC(O)CC(=O)CN2CCCCC2=O)CC1 (stereo not drawn) .
-1.55

If you can, please state the reported log10(Ki) value of `CC(C)Oc1ccccc1N1CCN(C/C=C/C(=O)CN2CCCCC2=O)CC1` .
-1.74

###

# assayedSystem: Alpha-1A adrenergic receptor (Homo sapiens, UniProt P35348)
# Sequence (P35348 whole entry): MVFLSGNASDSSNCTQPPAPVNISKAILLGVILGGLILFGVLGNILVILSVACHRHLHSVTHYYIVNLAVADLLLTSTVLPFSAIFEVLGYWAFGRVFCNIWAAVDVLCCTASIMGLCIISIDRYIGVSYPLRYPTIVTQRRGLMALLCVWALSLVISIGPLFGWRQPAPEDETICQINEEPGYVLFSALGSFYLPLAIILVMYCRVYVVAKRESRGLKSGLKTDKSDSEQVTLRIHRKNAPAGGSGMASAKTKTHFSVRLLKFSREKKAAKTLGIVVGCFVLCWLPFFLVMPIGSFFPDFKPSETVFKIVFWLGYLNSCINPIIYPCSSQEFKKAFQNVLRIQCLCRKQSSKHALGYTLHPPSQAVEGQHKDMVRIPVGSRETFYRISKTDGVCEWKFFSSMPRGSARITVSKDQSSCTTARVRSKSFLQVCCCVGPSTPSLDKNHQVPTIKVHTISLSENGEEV
Documented Ki across a set of compounds
Number in nM, nothing else.

Study these solved cases before continuing.
* CC(C)Oc1ccccc1N1CCN(CCNC(=O)CN2CCCCC2=O)CC1 | 8.7
* CCOC(=O)C1CCC(=O)N1CC(=O)NCCN1CCN(c2ccccc2OC(C)C)CC1 (stereo unspecified) | 20
* CC(C)Oc1ccccc1N1CCN(CCN(C)C(=O)CN2CCCCC2=O)CC1 | 53
* CC(C)Oc1ccccc1N1CCN(CCCNC(=O)CN2CCCCC2=O)CC1 | 0.66
* CC(C)Oc1ccccc1N1CCN(CC(=O)CC(=O)CN2CCCCC2=O)CC1 | 417

If you can, please state the reported Ki value of `CC(C)Oc1cc(F)ccc1N1CCN(CCNC(=O)CN2CCCCC2=O)CC1` .
83

Each recorded value in this set is attributed to ChEMBL document CHEMBL1132880.
